These measurements were taken from the supplement of paper PMC10567573.

B1: FCHSD1 (parent)
chain: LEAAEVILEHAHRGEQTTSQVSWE

Variants of: B1
Assay: protein stability index of a GFP-peptide fusion (GPS, HEK-293T) (PSI 1-6); higher = more stable;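 further: lentivirally expressed fusions sorted by FACS into six bins by GFP to DsRed ratio, PSI derived from sequencing read proportions per bin multiplied by bin number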
Conditions: c terminus: a fixed tail appended
Catalogue of protein stability index values

{"change": "S19P", "protein stability index": 4.7}
{"change": "E24S", "protein stability index": 4.46}
{"change": "E2F", "protein stability index": 2.21}
{"change": "L1F", "protein stability index": 3.33}
{"change": "S22G", "protein stability index": 4.89}
{"change": "G14P", "protein stability index": 4.29}
{"change": "Q16I", "protein stability index": 3.98}
{"change": "E5H", "protein stability index": 3.6}
{"change": "W23T", "protein stability index": 4.9}
{"change": "E9C", "protein stability index": 3.04}
{"change": "Q20Y", "protein stability index": 4.26}
{"change": "G14F", "protein stability index": 2.88}
{"change": "I7H", "protein stability index": 5.15}
{"change": "H12M", "protein stability index": 3.79}
{"change": "E9F", "protein stability index": 2.54}
{"change": "Q16A", "protein stability index": 4.41}
{"change": "E5Y", "protein stability index": 2.01}
{"change": "V21T", "protein stability index": 4.64}
{"change": "A11P", "protein stability index": 5.38}
{"change": "V21Q", "protein stability index": 4.44}
{"change": "R13A", "protein stability index": 4.58}
{"change": "R13V", "protein stability index": 4.93}
